The following are reported pIC50 results, target or system Poly [ADP-ribose] polymerase 1 (Homo sapiens, UniProt P09874).
To interpret pIC50, take it as minus log10 of a concentration measured in moles per litre.

Field pIC50 (Poly [ADP-ribose] polymerase 1 (Homo sapiens, UniProt P09874)), entry `Nc1ccc2c(c1)Cc1c-2[nH]c(=O)c2ccccc12` : 7.01

# lookup: `O=c1[nH]c2c(c3ccccc13)Cc1cc(S(=O)(=O)n3ccnc3)c(F)cc1-2` on Poly [ADP-ribose] polymerase 1 (Homo sapiens, UniProt P09874), pIC50 = 6.30

Poly [ADP-ribose] polymerase 1 (Homo sapiens, UniProt P09874) data for `O=c1[nH]c2c(c3ccccc13)Cc1cc([N+](=O)[O-])ccc1-2` ; its pIC50: 6.52
